The origin of these recorded values is ChEMBL document CHEMBL3785058.

# ASSAYED_SYSTEM: ALK tyrosine kinase receptor (Homo sapiens, UniProt Q9UM73, L1196M)
# Sequence (Q9UM73 19-1620 L1196M limits assumed): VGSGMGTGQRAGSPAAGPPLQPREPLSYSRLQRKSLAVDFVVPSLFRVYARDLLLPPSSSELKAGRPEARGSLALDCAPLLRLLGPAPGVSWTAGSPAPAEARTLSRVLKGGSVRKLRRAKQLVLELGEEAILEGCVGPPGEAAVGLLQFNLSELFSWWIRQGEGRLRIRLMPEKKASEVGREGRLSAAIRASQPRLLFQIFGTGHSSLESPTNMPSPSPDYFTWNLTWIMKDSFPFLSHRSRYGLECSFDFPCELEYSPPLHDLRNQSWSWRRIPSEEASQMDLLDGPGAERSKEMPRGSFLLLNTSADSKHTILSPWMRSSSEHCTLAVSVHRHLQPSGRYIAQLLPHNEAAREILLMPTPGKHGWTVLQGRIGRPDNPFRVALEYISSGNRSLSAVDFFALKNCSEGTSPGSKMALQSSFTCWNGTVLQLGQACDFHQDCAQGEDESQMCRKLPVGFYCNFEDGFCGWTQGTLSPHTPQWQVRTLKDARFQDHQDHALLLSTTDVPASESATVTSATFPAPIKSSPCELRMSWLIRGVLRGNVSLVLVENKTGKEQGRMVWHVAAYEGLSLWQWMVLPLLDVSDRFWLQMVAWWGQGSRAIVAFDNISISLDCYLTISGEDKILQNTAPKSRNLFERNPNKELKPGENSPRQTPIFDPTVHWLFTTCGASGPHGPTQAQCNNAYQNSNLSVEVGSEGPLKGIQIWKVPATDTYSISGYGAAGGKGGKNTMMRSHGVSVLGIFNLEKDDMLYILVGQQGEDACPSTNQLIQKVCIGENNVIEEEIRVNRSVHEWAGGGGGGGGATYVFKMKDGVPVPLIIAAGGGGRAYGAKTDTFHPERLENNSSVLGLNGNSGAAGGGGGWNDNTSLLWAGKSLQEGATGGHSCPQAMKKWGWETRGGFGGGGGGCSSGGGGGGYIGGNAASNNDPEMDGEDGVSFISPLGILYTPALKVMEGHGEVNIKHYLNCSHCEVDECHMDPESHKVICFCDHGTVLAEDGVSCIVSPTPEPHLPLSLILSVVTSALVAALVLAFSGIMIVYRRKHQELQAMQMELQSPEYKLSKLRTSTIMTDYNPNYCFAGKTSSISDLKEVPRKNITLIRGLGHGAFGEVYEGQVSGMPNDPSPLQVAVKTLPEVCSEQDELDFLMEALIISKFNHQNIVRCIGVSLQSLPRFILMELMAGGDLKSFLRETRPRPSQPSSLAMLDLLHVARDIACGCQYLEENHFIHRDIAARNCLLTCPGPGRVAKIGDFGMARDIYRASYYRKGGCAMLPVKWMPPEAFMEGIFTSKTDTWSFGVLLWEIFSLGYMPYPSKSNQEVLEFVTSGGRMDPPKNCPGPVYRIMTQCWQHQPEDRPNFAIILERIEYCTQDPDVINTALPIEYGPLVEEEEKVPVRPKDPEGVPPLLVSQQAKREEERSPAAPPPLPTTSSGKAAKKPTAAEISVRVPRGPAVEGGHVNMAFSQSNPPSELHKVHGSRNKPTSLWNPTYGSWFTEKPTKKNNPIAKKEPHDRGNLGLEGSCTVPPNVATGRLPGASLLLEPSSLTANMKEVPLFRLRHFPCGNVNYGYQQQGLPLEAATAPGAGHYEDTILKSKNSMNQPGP
# ASSAY: Inhibition of recombinant human ALK L1196M mutant using tyrosine kinase substrate-biotin after 30 mins by HTRF assay
Kindly supply the reported IC50 values for the records listed here.
Field format: number, assumed nM, no unit text.

# input Can you share its IC50? I mean this compound: `COc1ccc(Cn2cc(Nc3nc(Nc4cc(C)c(C5CCNCC5)cc4OC(C)C)ncc3Cl)c(S(=O)(=O)C(C)C)n2)cc1`
# output 157

# input Further, for Cc1cc(Nc2ncc(Cl)c(Nc3cn(C)nc3S(=O)(=O)C(C)C(C)C)n2)c(OC(C)C)cc1C1CCNCC1 (stereo unspecified) ?
# output 3900

# input // query: `Cc1cc(Nc2ncc(Cl)c(Nc3cn(C)nc3S(=O)(=O)C(C)C)n2)c(OC2CC2)cc1[C@H]1CC[C@H](NS(C)(=O)=O)CC1`
# output 20

# input Request: `CNC(=O)c1nn(C)cc1Nc1nc(Nc2cc(C)c(C3CCN(C)CC3)cc2OC2CC2)ncc1Cl`
# output 24

# input Repeat for the following compound: `Cc1cc(Nc2ncc(Cl)c(Nc3cn(C)nc3S(=O)(=O)C(C)C)n2)c(OC2CC2)cc1C1CCS(=O)(=O)CC1`
# output 9

# input Lookup `CCn1cc(Nc2nc(Nc3cc(C)c(C4CCNCC4)cc3OC(C)C)ncc2Cl)c(S(=O)(=O)C(C)C)n1`
# output 28

----------
# ASSAY: Tmax in Sprague-Dawley rat at 5 mg/kg, po
# Assay type: ADME, organism-based
# CONDITIONS: in vivo
MEASURED_PROPERTY: Tmax (h)
Please state the figure in h; there is no need to write the unit.

# input I am curious: what Tmax value has been reported for `CC(=O)N1CCN([C@H]2CC[C@H](c3cc(OC4CC4)c(Nc4ncc(Cl)c(Nc5cn(C)nc5S(=O)(=O)C(C)C)n4)cc3C)CC2)CC1` ?
# output 6

----------
# ASSAY: Half life in Balb/c nude mouse at 1 mg/kg, iv
# Type: ADME, organism-based
# CONDITIONS: in vivo
MEASURED_PROPERTY: half-life (h)
Report as a plain number; the unit h is understood.

# input Suppose we examine the compound `CC(=O)N1CCN([C@H]2CC[C@H](c3cc(OC4CC4)c(Nc4ncc(Cl)c(Nc5cn(C)nc5S(=O)(=O)C(C)C)n4)cc3C)CC2)CC1` ; what half-life value has been reported?
# output 1.4

----------
# ASSAY: Tmax in Beagle dog at 3 mg/kg, po
# Assay type: ADME, organism-based, Canis lupus familiaris
# CONDITIONS: in vivo
MEASURED_PROPERTY: Tmax (h)
State just the number; it will be interpreted in h.

# input # query: Tmax of entry `CC(=O)N1CCN([C@H]2CC[C@H](c3cc(OC4CC4)c(Nc4ncc(Cl)c(Nc5cn(C)nc5S(=O)(=O)C(C)C)n4)cc3C)CC2)CC1`
# output 1

----------
# ASSAY: Half life in Beagle dog at 1 mg/kg, iv
# Format: ADME, organism-based, Canis lupus familiaris
# CONDITIONS: in vivo
MEASURED_PROPERTY: half-life (min)
Supply the numeric figure in min, leaving out any unit text.

# input Report half-life for `CC(=O)N1CCN([C@H]2CC[C@H](c3cc(OC4CC4)c(Nc4ncc(Cl)c(Nc5cn(C)nc5S(=O)(=O)C(C)C)n4)cc3C)CC2)CC1` please.
# output 384

----------
# ASSAY: Clearance in Beagle dog at 1 mg/kg, iv
# Type: ADME, organism-based, Canis lupus familiaris
# CONDITIONS: in vivo
MEASURED_PROPERTY: clearance (mL/min/kg)
Write the answer as a number in mL/min/kg, unit excluded.

# input For `CC(=O)N1CCN([C@H]2CC[C@H](c3cc(OC4CC4)c(Nc4ncc(Cl)c(Nc5cn(C)nc5S(=O)(=O)C(C)C)n4)cc3C)CC2)CC1` , what is its reported clearance?
# output 11.1

----------
# ASSAYED_SYSTEM: ALK tyrosine kinase receptor (Homo sapiens)
# ASSAY: Inhibition of recombinant human wild type ALK using tyrosine kinase substrate-biotin after 30 mins by HTRF assay
Binary call on IC50 with cut-off 10 nM: strictly below means Condition met, and equality or higher means Condition not met.

# input hey, is IC50 for Cc1cc(Nc2ncc(Cl)c(Nc3cn(C)nc3S(=O)(=O)C(C)C(C)C)n2)c(OC(C)C)cc1C1CCNCC1 (stereo not given) lower than 10 nM or not?
# output Condition not met

# input Now consider `Cc1cc(Nc2ncc(Cl)c(Nc3cn(C)nc3S(C)(=O)=O)n2)c(OC(C)C)cc1C1CCNCC1` .
# output Condition not met

# input # repeat for `Cc1cc(Nc2ncc(Cl)c(Nc3cn(C)nc3S(=O)(=O)C(C)C)n2)c(OC2CC2)cc1[C@H]1CC[C@H](NS(C)(=O)=O)CC1`
# output Condition not met

# input Param item: `Cc1cc(Nc2ncc(Cl)c(Nc3cn(C)nc3S(=O)(=O)C(C)C)n2)c(OC2CC2)cc1C1CCN(C)CC1`
# output Condition met

# input Please give the result for `Cc1cc(Nc2ncc(Cl)c(Nc3cn(C)nc3S(=O)(=O)C(C)C)n2)c(OC2CC2)cc1[C@H]1CC[C@@H](NC(C)C)CC1` too.
# output Condition met

# input And the next one, `Cc1cc(Nc2ncc(Cl)c(Nc3cn(C)nc3S(=O)(=O)C(C)C)n2)c(OC2CC2)cc1[C@H]1CC[C@@H](NC2CC2)CC1` ?
# output Condition met

# input Same question, `Cc1cc(Nc2ncc(Cl)c(Nc3cn(C)nc3S(=O)(=O)N(C)C)n2)c(OC(C)C)cc1C1CCNCC1` this time
# output Condition not met

# input Okay, and `Cc1cc(Nc2ncc(Cl)c(Nc3cn(C)nc3S(=O)(=O)C(C)C)n2)c(OC2CC2)cc1C1CCS(=O)(=O)CC1` ?
# output Condition met

# input And for `Cc1cc(Nc2ncc(Cl)c(Nc3cn(C)nc3S(=O)(=O)C3CC3)n2)c(OC(C)C)cc1C1CCNCC1` ?
# output Condition not met

# input Similarly, `CCn1cc(Nc2nc(Nc3cc(C)c(C4CCNCC4)cc3OC(C)C)ncc2Cl)c(S(=O)(=O)C(C)C)n1` ?
# output Condition not met

# input Do the same for `CNC(=O)c1nn(C)cc1Nc1nc(Nc2cc(C)c(C3CCN(C)CC3)cc2OC2CC2)ncc1Cl` please
# output Condition not met

# input Entry to check: `COc1ccc(Cn2cc(Nc3nc(Nc4cc(C)c(C5CCNCC5)cc4OC(C)C)ncc3Cl)c(S(=O)(=O)C(C)C)n2)cc1`
# output Condition not met

# input Try the molecule `Cc1cc(Nc2ncc(Cl)c(Nc3c[nH]nc3S(=O)(=O)C(C)C)n2)c(OC(C)C)cc1C1CCNCC1`
# output Condition not met

# input Note, next up: `Cc1cc(Nc2ncnc(Nc3cn(C)nc3S(=O)(=O)C(C)C)n2)c(OC2CC2)cc1C1CCN(C)CC1`
# output Condition not met

# input Item: `Cc1nc(Nc2nc(Nc3cc(C)c(C4CCN(C)CC4)cc3OC3CC3)ncc2Cl)c(S(=O)(=O)C(C)C)s1`
# output Condition met

----------
# ASSAY: AUC(0 to infinity) in Balb/c nude mouse at 5 mg/kg, po
# Format: ADME, organism-based
# Set-up: dose 5 mg/kg, time infinity, route oral
# CONDITIONS: in vivo
MEASURED_PROPERTY: AUC(0-inf) (ng·h/mL)
Reply numerically in ng·h/mL, unit not repeated.

# input What value of AUC(0-inf) has been reported for the following compound? `CC(=O)N1CCN([C@H]2CC[C@H](c3cc(OC4CC4)c(Nc4ncc(Cl)c(Nc5cn(C)nc5S(=O)(=O)C(C)C)n4)cc3C)CC2)CC1`
# output 1700

----------
# ASSAY: AUC(0 to infinity) in Beagle dog at 1 mg/kg, iv
# Format: ADME, organism-based, Canis lupus familiaris
# Parameters: dose 1 mg/kg, time infinity, route intravenous
# CONDITIONS: in vivo
MEASURED_PROPERTY: AUC(0-inf) (ng·h/mL)
The reply should contain only the number, in ng·h/mL.

# input // lookup AUC(0-inf) for `CC(=O)N1CCN([C@H]2CC[C@H](c3cc(OC4CC4)c(Nc4ncc(Cl)c(Nc5cn(C)nc5S(=O)(=O)C(C)C)n4)cc3C)CC2)CC1`
# output 1500

----------
# ASSAYED_SYSTEM: ALK tyrosine kinase receptor (Homo sapiens, UniProt Q9UM73, L1196M)
# ASSAY: Inhibition of recombinant human ALK L1196M mutant using tyrosine kinase substrate-biotin after 30 mins by HTRF assay
MEASURED_PROPERTY: pIC50
pIC50 is a log-scale quantity: -log10 of the concentration expressed in molar.

# input I'm curious: which pIC50 was measured for `Cc1cc(Nc2ncc(Cl)c(Nc3c[nH]nc3S(=O)(=O)C(C)C)n2)c(OC(C)C)cc1C1CCNCC1` tested on ALK tyrosine kinase receptor (Homo sapiens, UniProt Q9UM73, L1196M)?
# output 7.55

# input Now try `Cc1cc(Nc2ncc(Cl)c(Nc3cn(C)nc3S(=O)(=O)C(C)C)n2)c(OC2CC2)cc1[C@H]1CC[C@@H](NC2CC2)CC1` .
# output 7.70

# input Entry to check: `Cc1cc(Nc2ncc(Cl)c(Nc3cn(C)nc3S(C)(=O)=O)n2)c(OC(C)C)cc1C1CCNCC1`
# output 7.03
